All values here come from the supplement of paper PMC5998384.

System: HeLa Kyoto
Assay: thermal stability score vs G1/S (z-score of summed log2 fold changes over temperatures); higher = more thermally stable than in G1/S
Details: cell cycle stage: early G1 (4.5 h after nocodazole release)
Param threshold (-0.2) applies to thermal stability score; output satisfied when value >= threshold, not satisfied when value < threshold.

Answered examples (2):
{"substance": "MAAAAAGTATSQRFFQSFSDALIDEDPQAALEELTKALEQKPDDAQYYCQRAYCHILLGNYCVAVADAKKSLELNPNNSTAMLRKGICEYHEKNYAAALETFTEGQKLDIETGFHRVGQAGLQLLTSSDPPALDSQSAGITGADANFSVWIKRCQEAQNGSESEVWTHQSKIKYDWYQTESQVVITLMIKNVQKNDVNVEFSEKELSALVKLPSGEDYNLKLELLHPIIPEQSTFKVLSTKIEIKLKKPEAVRWEKLEGQGDVPTPKQFVADVKNLYPSSSPYTRNWDKLVGEIKEEEKNEKLEGDAALNRLFQQIYSDGSDEVKRAMNKSFMESGGTVLSTNWSDVGKRKVEINPPDDMEWKKY [SUGT1]", "category": "satisfied"}
{"substance": "MQWNVPRTVSRLARRTCLEPHNAGLFGHCQNVKGPLLLYNAESKVVLVQGPQKQWLHLSAAQCVAKERRPLDAHPPQPGVLRHKQGKQHVSFRRVFSSSATAQGTPEKKEEPDPLQDKSISLYQRFKKTFRQYGKVLIPVHLITSGVWFGTFYYAALKGVNVVPFLELIGLPDSVVSILKNSQSGNALTAYALFKIATPARYTVTLGGTSVTVKYLRSHGYMSTPPPVKEYLQDRMEETKELITEKMEETKDRLTEKLQETKEKVSFKKKVE [FAM210A]", "category": "not satisfied"}

Determine whether measured thermal stability score meets or exceeds -0.2 for MAVRSLWAGRLRVQRLLAWSAAWESKGWPLPFSTATQRTAGEDCRSEDPPDELGPPLAERALRVKAVKLEKEVQDLTVRYQRAIADCENIRRRTQRCVEDAKIFGIQSFCKDLVEVADILEKTTECISEESEPEDQKLTLEKVFRGLLLLEAKLKSVFAKHGLEKLTPIGDKYDPHEHELICHVPAGVGVQPGTVALVRQDGYKLHGRTIRLARVEVAVESQRRL [GRPEL2]
not satisfied

Determine whether measured thermal stability score meets or exceeds -0.2 for MAELDPFGAPAGAPGGPALGNGVAGAGEEDPAAAFLAQQESEIAGIENDEAFAILDGGAPGPQPHGEPPGGPDAVDGVMNGEYYQESNGPTDSYAAISQVDRLQSEPESIRKWREEQMERLEALDANSRKQEAEWKEKAIKELEEWYARQDEQLQKTKANNRVADEAFYKQPFADVIGYVTNINHPCYSLEQAAEEAFVNDIDESSPGTEWERVARLCDFNPKSSKQAKDVSRMRSVLISLKQAPLVH [CLTA]
not satisfied

Determine whether measured thermal stability score meets or exceeds -0.2 for MASPSRRLQTKPVITCFKSVLLIYTFIFWITGVILLAVGIWGKVSLENYFSLLNEKATNVPFVLIATGTVIILLGTFGCFATCRASAWMLKLYAMFLTLVFLVELVAAIVGFVFRHEIKNSFKNNYEKALKQYNSTGDYRSHAVDKIQNTLHCCGVTDYRDWTDTNYYSEKGFPKSCCKLEDCTPQRDADKVNNEGCFIKVMTIIESEMGVVAGISFGVACFQLIGIFLAYCLSRAITNNQYEIV [TSPAN6]
satisfied

----------
# solubility in G1/S (log2) listing for each entry below
Test system: HeLa Kyoto
Assay: solubility in G1/S (NP-40 vs SDS abundance) (log2 ratio); higher = more soluble
Conditions: cell cycle stage: G1/S
Keep the answer to the number alone.

Value lookup for solubility in G1/S (log2); key = MAAERGAGQQQSQEMMEVDRRVESEESGDEEGKKHSSGIVADLSEQSLKDGEERGEEDPEEEHELPVDMETINLDRDAEDVDLNHYRIGKIEGFEVLKKVKTLCLRQNLIKCIENLEELQSLRELDLYDNQIKKIENLEALTELEILDISFNLLRNIEGVDKLTRLKKLFLVNNKISKIENLSNLHQLQMLELGSNRIRAIENIDTLTNLESLFLGKNKITKLQNLDALTNLTVLSMQSNRLTKIEGLQNLVNLRELYLSHNGIEVIEGLENNNKLTMLDIASNRIKKIENISHLTELQEFWMNDNLLESWSDLDELKGARSLETVYLERNPLQKDPQYRRKVMLALPSVRQIDATFVRF [PPP1R7]
0.332

Value lookup for solubility in G1/S (log2); key = MAACTARRALAVGSRWWSRSLTGARWPRPLCAAAGAGAFSPASTTTTRRHLSSRNRPEGKVLETVGVFEVPKQNGKYETGQLFLHSIFGYRGVVLFPWQARLYDRDVASAAPEKAENPAGHGSKEVKGKTHTYYQVLIDARDCPHISQRSQTEAVTFLANHDDSRALYAIPGLDYVSHEDILPYTSTDQVPIQHELFERFLLYDQTKAPPFVARETLRAWQEKNHPWLELSDVHRETTENIRVTVIPFYMGMREAQNSHVYWWRYCIRLENLDSDVVQLRERHWRIFSLSGTLETVRGRGVVGREPVLSKEQPAFQYSSHVSLQASSGHMWGTFRFERPDGSHFDVRIPPFSLESNKDEKTPPSGLHW [POLDIP2]
0.07

Value lookup for solubility in G1/S (log2); key = MSFLQDPSFFTMGMWSIGAGALGAAALALLLANTDVFLSKPQKAALEYLEDIDLKTLEKEPRTFKAKELWEKNGAVIMAVRRPGCFLCREEAADLSSLKSMLDQLGVPLYAVVKEHIRTEVKDFQPYFKGEIFLDEKKKFYGPQRRKMMFMGFIRLGVWYNFFRAWNGGFSGNLEGEGFILGGVFVVGSGKQGILLEHREKEFGDKVNLLSVLEAAKMIKPQTLASEKK [FAM213A]
-0.0704

----------
Tested on: HeLa Kyoto
Experiment: solubility change mitosis vs G1/S (difference of NP-40 vs SDS log2 ratios) (log2 ratio difference); higher = more soluble in mitosis
property.label: solubility change mitosis (log2)

The following sequences have reported results that may help.
{"biopolymer.sequence": "MAAAAPDSRVSEEENLKKTPKKKMKMVTGAVASVLEDEATDTSDSEGSCGSEKDHFYSDDDAIEADSEGDAEPCDKENENDGESSVGTNMGWADAMAKVLNKKTPESKPTILVKNKKLEKEKEKLKQERLEKIKQRDKRLEWEMMCRVKPDVVQDKETERNLQRIATRGVVQLFNAVQKHQKNVDEKVKEAGSSMRKRAKLISTVSKKDFISVLRGMDGSTNETASSRKKPKAKQTEVKSEEGPGWTILRDDFMMGASMKDWDKESDGPDDSRPESASDSDT [RRP15]", "measured.target": "HeLa Kyoto", "recorded.value": 0.962}
{"biopolymer.sequence": "MLSSTAMYSAPGRDLGMEPHRAAGPLQLRFSPYVFNGGTILAIAGEDFAIVASDTRLSEGFSIHTRDSPKCYKLTDKTVIGCSGFHGDCLTLTKIIEARLKMYKHSNNKAMTTGAIAAMLSTILYSRRFFPYYVYNIIGGLDEEGKGAVYSFDPVGSYQRDSFKAGGSASAMLQPLLDNQVGFKNMQNVEHVPLSLDRAMRLVKDVFISAAERDVYTGDALRICIVTKEGIREETVSLRKD [PSMB1]", "measured.target": "HeLa Kyoto", "recorded.value": -0.098}

Next:
Value lookup for solubility change mitosis (log2); key = MAERGYSFSLTTFSPSGKLVQIEYALAAVAGGAPSVGIKAANGVVLATEKKQKSILYDERSVHKVEPITKHIGLVYSGMGPDYRVLVHRARKLAQQYYLVYQEPIPTAQLVQRVASVMQEYTQSGGVRPFGVSLLICGWNEGRPYLFQSDPSGAYFAWKATAMGKNYVNGKTFLEKRYNEDLELEDAIHTAILTLKESFEGQMTEDNIEVGICNEAGFRRLTPTEVKDYLAAIA [PSMA2]
-0.045

----------
# melting temperature listing for each entry below
System: HeLa Kyoto
Assay: melting temperature (median over replicates), in situ; higher = more thermally stable
Conditions: cell cycle stage: mitosis
Use °C as the unit, but write only the number.

{"biopolymer.sequence": "MQPPGPPPAYAPTNGDFTFVSSADAEDLSGSIASPDVKLNLGGDFIKESTATTFLRQRGYGWLLEVEDDDPEDNKPLLEELDIDLKDIYYKIRCVLMPMPSLGFNRQVVRDNPDFWGPLAVVLFFSMISLYGQFRVVSWIITIWIFGSLTIFLLARVLGGEVAYGQVLGVIGYSLLPLIVIAPVLLVVGSFEVVSTLIKLFGVFWAAYSAASLLVGEEFKTKKPLLIYPIFLLYIYFLSLYTGV [YIPF4]", "property.label": "melting temperature", "recorded.value": 56.1}
{"biopolymer.sequence": "MVKQIESKTAFQEALDAAGDKLVVVDFSATWCGPCKMIKPFFHSLSEKYSNVIFLEVDVDDCQDVASECEVKCMPTFQFFKKGQKVGEFSGANKEKLEATINELV [TXN]", "property.label": "melting temperature", "recorded.value": 58.1}
{"biopolymer.sequence": "MAAAGAPDGMEEPGMDTEAETVATEAPARPVNCLEAEAAAGAAAEDSGAARGSLQPAPAQPPGDPAAQASVSNGEDAGGGAGRELVDLKIIWNKTKHDVKFPLDSTGSELKQKIHSITGLPPAMQKVMYKGLVPEDKTLREIKVTSGAKIMVVGSTINDVLAVNTPKDAAQQDAKAEENKKEPLCRQKQHRKVLDKGKPEDVMPSVKGAQERLPTVPLSGMYNKSGGKVRLTFKLEQDQLWIGTKERTEKLPMGSIKNVVSEPIEGHEDYHMMAFQLGPTEASYYWVYWVPTQYVDAIKDTVLGKWQYF [UBFD1]", "property.label": "melting temperature", "recorded.value": 52.1}

Value lookup for melting temperature; key = MVWPWVAMASRWGPLIGLAPCCLWLLGAVLLMDASARPANHSSTRERVANREENEILPPDHLNGVKLEMDGHLNRGFHQEVFLGKDLGGFDEDAEPRRSRRKLMVIFSKVDVNTDRKISAKEMQRWIMEKTAEHFQEAMEESKTHFRAVDPDGDGHVSWDEYKVKFLASKGHSEKEVADAIRLNEELKVDEETQEVLENLKDRWYQADSPPADLLLTEEEFLSFLHPEHSRGMLRFMVKEIVRDLDQDGDKQLSVPEFISLPVGTVENQQGQDIDDNWVKDRKKEFEELIDSNHDGIVTAEELESYMDPMNEYNALNEAKQMIAVADENQNHHLEPEEVLKYSEFFTGSKLVDYARSVHEEF [SDF4]
53.9

Value lookup for melting temperature; key = MAAAAAGTATSQRFFQSFSDALIDEDPQAALEELTKALEQKPDDAQYYCQRAYCHILLGNYCVAVADAKKSLELNPNNSTAMLRKGICEYHEKNYAAALETFTEGQKLDIETGFHRVGQAGLQLLTSSDPPALDSQSAGITGADANFSVWIKRCQEAQNGSESEVWTHQSKIKYDWYQTESQVVITLMIKNVQKNDVNVEFSEKELSALVKLPSGEDYNLKLELLHPIIPEQSTFKVLSTKIEIKLKKPEAVRWEKLEGQGDVPTPKQFVADVKNLYPSSSPYTRNWDKLVGEIKEEEKNEKLEGDAALNRLFQQIYSDGSDEVKRAMNKSFMESGGTVLSTNWSDVGKRKVEINPPDDMEWKKY [SUGT1]
52

Value lookup for melting temperature; key = MALLFARSLRLCRWGAKRLGVASTEAQRGVSFKLEEKTAHSSLALFRDDTGVKYGLVGLEPTKVALNVERFREWAVVLADTAVTSGRHYWEVTVKRSQQFRIGVADVDMSRDSCIGVDDRSWVFTYAQRKWYTMLANEKAPVEGIGQPEKVGLLLEYEAQKLSLVDVSQVSVVHTLQTDFRGPVVPAFALWDGELLTHSGLEVPEGL [SPRYD4]
54.8

Value lookup for melting temperature; key = MAEQEPTAEQLAQIAAENEEDEHSVNYKPPAQKSIQEIQELDKDDESLRKYKEALLGRVAVSADPNVPNVVVTGLTLVCSSAPGPLELDLTGDLESFKKQSFVLKEGVEYRIKISFRVNREIVSGMKYIQHTYRKGVKIDKTDYMVGSYGPRAEEYEFLTPVEEAPKGMLARGSYSIKSRFTDDDKTDHLSWEWNLTIKKDWKD [ARHGDIA]
51.7

Value lookup for melting temperature; key = MAHQTGIHATEELKEFFAKARAGSVRLIKVVIEDEQLVLGASQEPVGRWDQDYDRAVLPLLDAQQPCYLLYRLDSQNAQGFEWLFLAWSPDNSPVRLKMLYAATRATVKKEFGGGHIKDELFGTVKDDLSFAGYQKHLSSCAAPAPLTSAERELQQIRINEVKTEISVESKHQTLQGLAFPLQPEAQRALQQLKQKMVNYIQMKLDLERETIELVHTEPTDVAQLPSRVPRDAARYHFFLYKHTHEGDPLESVVFIYSMPGYKCSIKERMLYSSCKSRLLDSVEQDFHLEIAKKIEIGDGAELTAEFLYDEVHPKQHAFKQAFAKPKGPGGKRGHKRLIRGPGENGDDS [TWF2]
53

Value lookup for melting temperature; key = MAAEEKDPLSYFAAYGSSSSGSSDEEDNIEPEETSRRTPDPAKSAGGCRNKAEKRLPGPDELFRSVTRPAFLYNPLNKQIDWERHVVKAPEEPPKEFKIWKSNYVPPPETYTTEKKPPPPELDMAIKWSNIYEDNGDDAPQNAKKARLLPEGEETLESDDEKDEHTSKKRKVEPGEPAKKKK [C1ORF52]
52.5

Value lookup for melting temperature; key = MTTQQIDLQGPGPWGFRLVGGKDFEQPLAISRVTPGSKAALANLCIGDVITAIDGENTSNMTHLEAQNRIKGCTDNLTLTVARSEHKVWSPLVTEEGKRHPYKMNLASEPQEVLHIGSAHNRSAMPFTASPASSTTARVITNQYNNPAGLYSSENISNFNNALESKTAASGVEANSRPLDHAQPPSSLVIDKESEVYKMLQEKQELNEPPKQSTSFLVLQEILESEEKGDPNKPSGFRSVKAPVTKVAASIGNAQKLPMCDKCGTGIVGVFVKLRDRHRHPECYVCTDCGTNLKQKGHFFVEDQIYCEKHARERVTPPEGYEVVTVFPK [PDLIM1]
56

Value lookup for melting temperature; key = MAAAAGRSLLLLLSSRGGGGGGAGGCGALTAGCFPGLGVSRHRQQQHHRTVHQRIASWQNLGAVYCSTVVPSDDVTVVYQNGLPVISVRLPSRRERCQFTLKPISDSVGVFLRQLQEEDRGIDRVAIYSPDGVRVAASTGIDLLLLDDFKLVINDLTYHVRPPKRDLLSHENAATLNDVKTLVQQLYTTLCIEQHQLNKERELIERLEDLKEQLAPLEKVRIEISRKAEKRTTLVLWGGLAYMATQFGILARLTWWEYSWDIMEPVTYFITYGSAMAMYAYFVMTRQEYVYPEARDRQYLLFFHKGAKKSRFDLEKYNQLKDAIAQAEMDLKRLRDPLQVHLPLRQIGEKD [MCU]
52.9
